Hey, just so you know, these numbers are from ChEMBL document CHEMBL1143042.

Tested on: HL-60
Assay: Apoptotic activity in HL60 cells after 24 hrs
Type: functional, cell-based
Conditions: Homo sapiens, HL-60, 24 h
READOUT: AC50 (µM)
Write the number in µM without appending the unit.

| MOLECULE | SYSTEM | OBSERVED MEASUREMENT |
| --- | --- | --- |
| COc1ccc(-c2oc3cc(OC)c(OC)c(O)c3c(=O)c2OC)cc1OC [ARTEMETIN] | HL-60 | 7.26 |
| COc1ccc(-c2oc3c(OC)c(OC)c(OC)c(O)c3c(=O)c2OC)cc1OC | HL-60 | 5.9 |

Data request: Return value of AC50 for input COc1ccc(-c2oc3c(OC)c(OC)c(OC)c(OC)c3c(=O)c2O)cc1OC [NATSUDAIDAI] , no commentary.
Data returned: 56.5

Data request: Return value of AC50 for input COc1ccc(-c2cc(=O)c3c(OC)c(OC)c(OC)c(OC)c3o2)cc1O , no commentary.
Data returned: 94.6

Data request: Return value of AC50 for input COc1ccc(-c2oc3cc(OC)c(OC)c(OC)c3c(=O)c2OC)cc1OC [HEXAMETHOXYFLAVONE] , no commentary.
Data returned: 92.1

###

Measured AC50 values are reported for all entries that follow.
Tested on: HL-60
Experiment: Apoptotic activity in HL60 cells after 24 hrs
Type: functional, cell-based
Conditions: Homo sapiens, HL-60, 24 h
Write the number in µM without appending the unit.

Answered examples (2):
| SMILES REPR | OBSERVED MEASUREMENT |
| --- | --- |
| COc1ccc(-c2cc(=O)c3c(O)c(OC)c(OC)c(OC)c3o2)cc1OC | 5.87 |
| COc1cc(-c2cc(=O)c3c(OC)c(OC)c(OC)c(OC)c3o2)ccc1O | 87.1 |

// switching to the query molecule
Data request: Return value of AC50 for input COc1ccc(-c2oc3c(OC)c(OC)c(OC)c(OC)c3c(=O)c2OC)cc1OC , no commentary.
Data returned: 33.9

###

Test system: HL-60
Experiment: Antiproliferative activity against HL60 after 24 hrs
Type: functional, cell-based
Conditions: Homo sapiens, HL-60, 24 h
READOUT: pIC50
# pIC50 = -log10(concentration in molar units)

Data request: Return value of pIC50 for input COc1ccc(-c2oc3cc(OC)c(OC)c(OC)c3c(=O)c2OC)cc1OC , no commentary.
Data returned: 4.69

Data request: Return value of pIC50 for input COc1c(OC)c(OC)c2c(=O)cc(-c3ccc(O)c(O)c3)oc2c1OC , no commentary.
Data returned: 4.15

Data request: Return value of pIC50 for input COc1ccc(-c2cc(=O)c3c(OC)c(OC)c(OC)c(OC)c3o2)cc1O , no commentary.
Data returned: 4.28

Data request: Return value of pIC50 for input COc1ccc(-c2oc3cc(OC)c(OC)c(O)c3c(=O)c2OC)cc1OC , no commentary.
Data returned: 5.19

Data request: Return value of pIC50 for input COc1ccc(-c2cc(=O)c3c(OC)c(OC)c(OC)c(OC)c3o2)cc1OC , no commentary.
Data returned: 4.38

Data request: Return value of pIC50 for input COc1ccc(-c2oc3c(OC)c(OC)c(OC)c(O)c3c(=O)c2OC)cc1OC , no commentary.
Data returned: 5.38

Data request: Return value of pIC50 for input COc1ccc(-c2oc3c(OC)c(OC)c(OC)c(OC)c3c(=O)c2OC)cc1OC , no commentary.
Data returned: 4.88

Data request: Return value of pIC50 for input COc1cc(-c2cc(=O)c3c(OC)c(OC)c(OC)c(OC)c3o2)ccc1O , no commentary.
Data returned: 4.32

Data request: Return value of pIC50 for input COc1ccc(-c2cc(=O)c3c(O)c(OC)c(OC)c(OC)c3o2)cc1OC , no commentary.
Data returned: 5.68
